Provenance of the data: paper PMC10663500

biological target: T1, human programmed cell death protein 1 (hPD-1) C93S (aa 24-167) (Homo sapiens, UniProt Q15116, C93S); assay: SPR; Carterra LSA; Fab from the ammonium sulfate precipitate of the culture supernatant immobilised on a NiHC200M chip; hPD-1 (1-1024 nM) or mPD-1-Fc (4-1024 nM) as analyte, fourfold dilution series, no regeneration; HBS-EP pH 7.4, 25 °C; medians over the spots of a construct, KD = koff/kon; conditions: one partner purified
T1 construct: made as a fusion with a TEV site and human Fc; the Fc was cut off with TEV protease; source: Expi293F, purified (Protein A, TEV cleavage of Fc, SEC; monomer fractions); not shown: Fc (human), C-terminal, cleaved
T1 sequence (Q15116 24-167 C93S): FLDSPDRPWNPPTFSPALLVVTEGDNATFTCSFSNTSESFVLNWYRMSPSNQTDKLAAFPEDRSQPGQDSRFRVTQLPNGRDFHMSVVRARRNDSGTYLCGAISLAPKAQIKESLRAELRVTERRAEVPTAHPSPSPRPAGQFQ
Measurement Label: pKd
Interpret pKd as the negative base-10 log of the concentration measured in mol/L.

Using known records, supply pKd for toripalimab Fab H.G57Y (Fab, V domains shown, heavy chain of Sm3 with this change; numbers count from the chain's first residue; as the light chain of Sm3; source: Brevibacillus, culture supernatant (ammonium sulfate precipitate); not shown: 6xHis, C-terminal, kept; 6xHN, C-terminal, kept) VH: QGQLVQSGAEVKKPGASVKVSCKASGYTFTDYEMHWVRQAPIHGLEWIGVIESETGYTAYNQKFKGRVTITADKSTSTAYMELSSLRSEDTAVYYCAREGITTVATTYYWYFDVWGQGTTVTVSS VL: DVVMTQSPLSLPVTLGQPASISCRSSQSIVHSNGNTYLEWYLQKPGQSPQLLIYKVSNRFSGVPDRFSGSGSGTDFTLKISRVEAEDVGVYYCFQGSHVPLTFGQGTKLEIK
8.47

Look up and report measured pKd for this entry: toripalimab Fab H.V50A (Fab, V domains shown, heavy chain of Sm3 with this change; numbers count from the chain's first residue; as the light chain of Sm3; source: Brevibacillus, culture supernatant (ammonium sulfate precipitate); not shown: 6xHis, C-terminal, kept; 6xHN, C-terminal, kept) VH: QGQLVQSGAEVKKPGASVKVSCKASGYTFTDYEMHWVRQAPIHGLEWIGAIESETGGTAYNQKFKGRVTITADKSTSTAYMELSSLRSEDTAVYYCAREGITTVATTYYWYFDVWGQGTTVTVSS VL: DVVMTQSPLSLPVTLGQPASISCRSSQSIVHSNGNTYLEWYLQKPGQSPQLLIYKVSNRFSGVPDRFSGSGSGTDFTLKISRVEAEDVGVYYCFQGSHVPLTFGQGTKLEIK
8.78

Give reported pKd value for toripalimab Fab L.V30A (Fab, V domains shown, as the heavy chain of Sm3; light chain of Sm3 with this change; numbers count from the chain's first residue; source: Brevibacillus, culture supernatant (ammonium sulfate precipitate); not shown: 6xHis, C-terminal, kept; 6xHN, C-terminal, kept) VH: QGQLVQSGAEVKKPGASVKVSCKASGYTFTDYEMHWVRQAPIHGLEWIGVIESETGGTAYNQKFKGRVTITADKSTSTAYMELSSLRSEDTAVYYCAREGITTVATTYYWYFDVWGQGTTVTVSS VL: DVVMTQSPLSLPVTLGQPASISCRSSQSIAHSNGNTYLEWYLQKPGQSPQLLIYKVSNRFSGVPDRFSGSGSGTDFTLKISRVEAEDVGVYYCFQGSHVPLTFGQGTKLEIK
8.66

Look up pKd of toripalimab Fab L.P100H (Fab, V domains shown, as the heavy chain of Sm3; light chain of Sm3 with this change; numbers count from the chain's first residue; source: Brevibacillus, culture supernatant (ammonium sulfate precipitate); not shown: 6xHis, C-terminal, kept; 6xHN, C-terminal, kept) VH: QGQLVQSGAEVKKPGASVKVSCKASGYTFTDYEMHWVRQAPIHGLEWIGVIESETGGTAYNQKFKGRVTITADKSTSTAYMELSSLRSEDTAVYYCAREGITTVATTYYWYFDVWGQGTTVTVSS VL: DVVMTQSPLSLPVTLGQPASISCRSSQSIVHSNGNTYLEWYLQKPGQSPQLLIYKVSNRFSGVPDRFSGSGSGTDFTLKISRVEAEDVGVYYCFQGSHVHLTFGQGTKLEIK and report it.
8.65
